Molecular target: murine IL-21R expressed on cells (murine, UniProt Q9JHX3 20-529)
Sequence (Q9JHX3 20-529 limits assumed): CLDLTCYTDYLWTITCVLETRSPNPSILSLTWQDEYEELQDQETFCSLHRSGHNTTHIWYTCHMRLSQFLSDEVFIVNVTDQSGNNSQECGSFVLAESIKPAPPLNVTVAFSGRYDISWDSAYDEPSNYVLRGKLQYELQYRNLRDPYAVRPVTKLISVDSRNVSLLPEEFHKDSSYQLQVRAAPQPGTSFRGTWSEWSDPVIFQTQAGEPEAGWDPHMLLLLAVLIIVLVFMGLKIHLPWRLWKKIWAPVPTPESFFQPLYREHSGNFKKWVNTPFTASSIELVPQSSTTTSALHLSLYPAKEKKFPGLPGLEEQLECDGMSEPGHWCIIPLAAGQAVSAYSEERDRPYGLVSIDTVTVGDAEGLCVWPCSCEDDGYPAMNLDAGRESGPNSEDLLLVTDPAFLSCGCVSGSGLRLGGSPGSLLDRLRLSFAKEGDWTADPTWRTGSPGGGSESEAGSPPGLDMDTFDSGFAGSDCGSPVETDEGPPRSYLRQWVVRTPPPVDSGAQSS
Experiment: cell-based or functional assay
Assign IC50 (nM) in Murine IL-21R-BaF3 Neutralization Assay to each entry below.
Give bare numbers, in nM.

Some entries whose results are on file:
binder="scFv H3 (scFv) scFv: QVQLQESGPGLVKTSETLSLTCAVSGYSISSGYYWGWIRQPPGKGLEWIGSISHTGNTYYNPPLKSRVTISVDTSKNQFSLKLSSVTAADTAVYYCARFMGFGRPEYWGKGTLVTVSSGGGGSGGGGSGGGGSALSSELTQDPPVSVALGQTVTLTCQGDSLRTYYASWYQQKSGQAPILLLYGKHKRPSGIPDRFSGSTSGDTASLTITGAQAEDEADYYCNSRDSSGNPHVLFGGGTQLTVL" units_text=nM measured_value=25.7
binder="scFv L19 (scFv) scFv: QVQLQESGPGLVKTSETLSLTCAVSGYSISSGYYWGWIRQPPGKGLEWIGSISHTGNTYYNPPLKSRVTISVDTSKNQFSLKLSSVTAADTAVYYCARGGGISRPEYWGKGTLVTVSSGGGGSGGGGSGGGGSALSSELTQDPPVSVALGQTVTLTCQGDSLRTYYASWYQQKSGQAPILLLYGKHKRPSGIPDRFSGSTSGDTASLTITGAQAEDEADYYCVARAVRGNPHVLFGGGTQLTVL" units_text=nM measured_value=13.6
binder="scFv L1 (scFv) scFv: QVQLQESGPGLVKTSETLSLTCAVSGYSISSGYYWGWIRQPPGKGLEWIGSISHTGNTYYNPPLKSRVTISVDTSKNQFSLKLSSVTAADTAVYYCARGGGISRPEYWGKGTLVTVSSGGGGSGGGGSGGGGSALSSELTQDPPVSVALGQTVTLTCQGDSLRTYYASWYQQKSGQAPILLLYGKHKRPSGIPDRFSGSTSGDTASLTITGAQAEDEADYYCASRSVSGNPHVLFGGGTQLTVL" units_text=nM measured_value=28.8

# per-item lookup of IC50 (nM) in Murine IL-21R-BaF3 Neutralization Assay; items listed below
1. scFv L3 (scFv) scFv: QVQLQESGPGLVKTSETLSLTCAVSGYSISSGYYWGWIRQPPGKGLEWIGSISHTGNTYYNPPLKSRVTISVDTSKNQFSLKLSSVTAADTAVYYCARGGGISRPEYWGKGTLVTVSSGGGGSGGGGSGGGGSALSSELTQDPPVSVALGQTVTLTCQGDSLRTYYASWYQQKSGQAPILLLYGKHKRPSGIPDRFSGSTSGDTASLTITGAQAEDEADYYCVSRAVVGNPHVLFGGGTQLTVL
2. scFv L21 (scFv) scFv: QVQLQESGPGLVKTSETLSLTCAVSGYSISSGYYWGWIRQPPGKGLEWIGSISHTGNTYYNPPLKSRVTISVDTSKNQFSLKLSSVTAADTAVYYCARGGGISRPEYWGKGTLVTVSSGGGGSGGGGSGGGGSALSSELTQDPPVSVALGQTVTLTCQGDSLRTYYASWYQQKSGQAPILLLYGKHKRPSGIPDRFSGSTSGDTASLTITGAQAEDEADYYCATRAVRGNPHVLFGGGTQLTVL

Resp:
1: 13.8; 2: 162
